# Test system: blackgrass
# Test Name: Test B pre/postemergence blackgrass
# Assay type: in vivo, Alopecurus myosuroides
# Condition Details: Preemergence, Rate 250 g/ha; scale 0 (no effect) to 10 (complete control)
Readout Kind: Blackgrass plant response rating
Reply with just the number.

Examples with answers:
>>> readout_number("CC(CBr)Cn1c(=O)on(C(=O)N(c2ccc(F)cc2)C(C)C)c1=O (stereo not shown)")
9
>>> readout_number("CC(C)N(C(=O)n1oc(=O)n(C[C@H](C)Cl)c1=O)c1ccc(F)cc1F")
9
>>> readout_number("C#CCn1c(=O)on(C(=O)N(c2ccc(F)cc2F)C(C)C)c1=O")
8

Now examine the next entry.
Qu. Query for blackgrass: what Blackgrass plant response rating does the record show for `CC(C)N(C(=O)n1oc(=O)n(CCCCCl)c1=O)c1ccc(Cl)cc1` ?
Ans. 7
